Target: T1, recombinant human CFD, His-tagged (human, UniProt P00746 26-253)
T1 construct: also called rhCFD-His
T1 sequence (P00746 26-253 limits assumed): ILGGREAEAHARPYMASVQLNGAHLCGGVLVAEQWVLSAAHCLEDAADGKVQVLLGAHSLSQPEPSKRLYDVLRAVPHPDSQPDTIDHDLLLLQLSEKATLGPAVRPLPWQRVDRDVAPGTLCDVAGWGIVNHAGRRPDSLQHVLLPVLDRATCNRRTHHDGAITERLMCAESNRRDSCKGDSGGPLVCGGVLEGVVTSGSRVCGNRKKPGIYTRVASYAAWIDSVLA
Assay: SPR MX96
Endpoint name: pKd
# log scale: pKd equals minus log10 of the concentration in mol/L

Given item KCD066 (antibody, V domains shown) VH: QVQLQQSAAELARPGASVKMSCKASGYTFTDYTMHWVKQRPGQGLEWIGYINPSGGYTDYNQKFKDKTALTADKSSSTAYMQLSSLTSEDSAVYYCARRRDYWFAYWGQGTLVTVSA VL: DIVMSQSPSSLAVSVGEKVTMSCKSSQSLLYSGNQKNYLAWYQQKPGQSPKLLIYWASTRESGVPDRFTGSGSGTDFTLTISSVKAEDLAVYYCHQYYSYLTFGAGTKLELK , the value recorded as its pKd is 8.72

Given item KCD214 (antibody, V domains shown, chimeric) VH: EVQLQQSVAEFVRPGASVKLSCTASGFNIKNTYMHWVKQRPEQGLEWIGRIDPANGNTEYAPKFQGKATITADTSSNTAYLQLSSLTSEDTAIYYCALYDYDGYWGQGTTLTVSS VL: EIVLTQSPALMAASPGEKVTITCRVSSSISSSSLHWYQQKSGTSPKPWIYGTSNLASGVPVRFSGSRSGTSYSLTISSMEAEDAATYYCQQWSDYPWTFGGGTKLEIK , the value recorded as its pKd is 8.96

Data provenance: patent US20180334496A1
